tested on: L1210; experiment: Antiproliferative activity against mouse L1210 cells assessed as cell viability at 0.1 mM after 72 hrs by trypan blue dye based hemocytometer analysis relative to control; type: functional; conditions: L1210, 72 h, read-out: Activity
Quantity name: viability at 100 µM (%)
Give bare numbers, in %.

Worked cases, viability at 100 µM given:
O=C(Nc1cccc(Cl)c1)Nc1ncnc2[nH]ncc12 :: 0
CC(C)(C)NC(=O)Nc1ncnc2[nH]ncc12 :: 30
O=C(Nc1ccccc1F)Nc1ncnc2[nH]ncc12 :: 60
c1ccc(CNc2ncnc3[nH]ncc23)cc1 :: 0
C=CCNC(=O)Nc1ncnc2[nH]ncc12 :: 0

Dear colleague, could you please provide viability at 100 µM for the molecules listed below?
1. CC(C)CCNc1ncnc2[nH]ncc12
2. CCOCCNC(=O)Nc1ncnc2[nH]ncc12
3. C[C@@H](O)[C@H](NC(=O)Nc1ncnc2[nH]ncc12)C(=O)O

1: 0; 2: 80; 3: 30
